- Run Description: Solubility experiments in different media, crystal forms of salts
- Type: physicochemical
- Design: unit not given here
- Setup Conditions: FaSSGF (artificial simulated gastric fluid); about 2 mg suspended for 24 hours; 37°C; HPLC, external standard method
Structures can show the parent of a compound that is named as a salt.
Measured Property: thermodynamic solubility FaSSGF

Reference set (5 entries):
{"columns": ["Compound", "thermodynamic solubility FaSSGF"],
 "data": [
  ["CC(C)c1c(F)cc(N2C[C@H](N(C)S(C)(=O)=O)[C@H]2C)c2cnc(Nc3ccnc(-c4cn(C)nc4Cl)n3)cc12 [crystal form A of citrate]", 0.053],
  ["CC(C)c1c(F)cc(N2C[C@H](N(C)S(C)(=O)=O)[C@H]2C)c2cnc(Nc3ccnc(-c4cn(C)nc4Cl)n3)cc12 [crystal form A of hydrochloride]", 0.072],
  ["CC(C)c1c(F)cc(N2C[C@H](N(C)S(C)(=O)=O)[C@H]2C)c2cnc(Nc3ccnc(-c4cn(C)nc4Cl)n3)cc12 [crystal form A of phosphate]", 0.010],
  ["CC(C)c1c(F)cc(N2C[C@H](N(C)S(C)(=O)=O)[C@H]2C)c2cnc(Nc3ccnc(-c4cn(C)nc4Cl)n3)cc12 [crystal form A of sulphate]", 0.096],
  ["CC(C)c1c(F)cc(N2C[C@H](N(C)S(C)(=O)=O)[C@H]2C)c2cnc(Nc3ccnc(-c4cn(C)nc4Cl)n3)cc12 [crystal form A of oxalate]", 0.070]
]}

(P) CC(C)c1c(F)cc(N2C[C@H](N(C)S(C)(=O)=O)[C@H]2C)c2cnc(Nc3ccnc(-c4cn(C)nc4Cl)n3)cc12 [crystal form A of maleate]
(Q) CC(C)c1c(F)cc(N2C[C@H](N(C)S(C)(=O)=O)[C@H]2C)c2cnc(Nc3ccnc(-c4cn(C)nc4Cl)n3)cc12 [crystal form A of salicylate]
Task: // which entry reports the smaller thermodynamic solubility FaSSGF, P or Q ? Respond using the label that marks the chosen record.
Output: Q

====

- Run Description: Solubility experiments in different media, crystal form A of free base
- Type: physicochemical
- Setup Conditions: pH1 buffer, simulated gastric fluid, thermodynamic from solid, pH 1, 37°C
Measured Property: solubility at 24 h (µg/mL)
Give a bare numeral; the unit µg/mL is implied.

Task: Field request: solubility at 24 h | item: CC(C)c1c(F)cc(N2C[C@H](N(C)S(C)(=O)=O)[C@H]2C)c2cnc(Nc3ccnc(-c4cn(C)nc4Cl)n3)cc12 [crystal form A of free base]
Output: 558

====

- Run Description: Hygroscopicity experiment (crystal forms of salts and crystal form A of free base)
- Format: physicochemical
- Setup Conditions: RH 80%
Structures can show the parent of a compound that is named as a salt.
Measured Property: weight gain after moisture absorption (%)

Reference set (5 entries):
{"columns": ["Molecule", "weight gain after moisture absorption, %"],
 "data": [
  ["CC(C)c1c(F)cc(N2C[C@H](N(C)S(C)(=O)=O)[C@H]2C)c2cnc(Nc3ccnc(-c4cn(C)nc4Cl)n3)cc12 [crystal form A of maleate]", 2.050],
  ["CC(C)c1c(F)cc(N2C[C@H](N(C)S(C)(=O)=O)[C@H]2C)c2cnc(Nc3ccnc(-c4cn(C)nc4Cl)n3)cc12 [crystal form B of hydrochloride]", 1.157],
  ["CC(C)c1c(F)cc(N2C[C@H](N(C)S(C)(=O)=O)[C@H]2C)c2cnc(Nc3ccnc(-c4cn(C)nc4Cl)n3)cc12 [crystal form A of citrate]", 0.573],
  ["CC(C)c1c(F)cc(N2C[C@H](N(C)S(C)(=O)=O)[C@H]2C)c2cnc(Nc3ccnc(-c4cn(C)nc4Cl)n3)cc12 [crystal form A of oxalate]", 1.707],
  ["CC(C)c1c(F)cc(N2C[C@H](N(C)S(C)(=O)=O)[C@H]2C)c2cnc(Nc3ccnc(-c4cn(C)nc4Cl)n3)cc12 [crystal form A of salicylate]", 0.1374]
]}

(P) CC(C)c1c(F)cc(N2C[C@H](N(C)S(C)(=O)=O)[C@H]2C)c2cnc(Nc3ccnc(-c4cn(C)nc4Cl)n3)cc12 [crystal form A of phosphate]
(Q) CC(C)c1c(F)cc(N2C[C@H](N(C)S(C)(=O)=O)[C@H]2C)c2cnc(Nc3ccnc(-c4cn(C)nc4Cl)n3)cc12 [crystal form A of sulphate]
Task: // which entry reports the smaller weight gain after moisture absorption, P or Q ? Respond using the label that marks the chosen record.
Output: P
(P: 0.533%, Q: 4.616%)

====

- Run Description: Solubility experiments in different media, crystal forms of salts
- Format: physicochemical
- Set-up: unit not given here
- Setup Conditions: FaSSIF (fasted-state artificial simulated intestinal fluid); about 2 mg suspended for 24 hours; 37°C; HPLC, external standard method
Structures can show the parent of a compound that is named as a salt.
Measured Property: thermodynamic solubility FaSSIF

Reference set (2 entries):
{"columns": ["Compound", "thermodynamic solubility FaSSIF"],
 "data": [
  ["CC(C)c1c(F)cc(N2C[C@H](N(C)S(C)(=O)=O)[C@H]2C)c2cnc(Nc3ccnc(-c4cn(C)nc4Cl)n3)cc12 [crystal form A of phosphate]", 0.203],
  ["CC(C)c1c(F)cc(N2C[C@H](N(C)S(C)(=O)=O)[C@H]2C)c2cnc(Nc3ccnc(-c4cn(C)nc4Cl)n3)cc12 [crystal form A of salicylate]", 0.101]
]}

(I) CC(C)c1c(F)cc(N2C[C@H](N(C)S(C)(=O)=O)[C@H]2C)c2cnc(Nc3ccnc(-c4cn(C)nc4Cl)n3)cc12 [crystal form A of citrate]
(II) CC(C)c1c(F)cc(N2C[C@H](N(C)S(C)(=O)=O)[C@H]2C)c2cnc(Nc3ccnc(-c4cn(C)nc4Cl)n3)cc12 [crystal form A of sulphate]
Task: // which entry reports the smaller thermodynamic solubility FaSSIF, I or II ? Respond using the label that marks the chosen record.
Output: II

====

- Run Description: Solubility experiments in different media, crystal forms of salts
- Assay type: physicochemical
- Set-up: unit not given here
- Setup Conditions: FaSSIF (fasted-state artificial simulated intestinal fluid); about 2 mg suspended for 24 hours; 37°C; HPLC, external standard method
Where a name gives a salt, the structure may show the parent alone.
Measured Property: thermodynamic solubility FaSSIF

{"columns": ["Molecule", "Measured Property", "Numeric Readout"],
 "data": [
  ["CC(C)c1c(F)cc(N2C[C@H](N(C)S(C)(=O)=O)[C@H]2C)c2cnc(Nc3ccnc(-c4cn(C)nc4Cl)n3)cc12 [crystal form A of oxalate]", "thermodynamic solubility FaSSIF", 0.035]
]}

(1) CC(C)c1c(F)cc(N2C[C@H](N(C)S(C)(=O)=O)[C@H]2C)c2cnc(Nc3ccnc(-c4cn(C)nc4Cl)n3)cc12 [crystal form A of maleate]
(2) CC(C)c1c(F)cc(N2C[C@H](N(C)S(C)(=O)=O)[C@H]2C)c2cnc(Nc3ccnc(-c4cn(C)nc4Cl)n3)cc12 [crystal form A of hydrochloride]
Task: Which of the two gives a bigger number for thermodynamic solubility FaSSIF: 1 or 2 ? Respond using the label that marks the chosen record.
Output: 2
(2: 0.214, 1: 0.029)

====

- Run Description: Solubility experiments in different media, crystal form A of free base
- Type: physicochemical
- Setup Conditions: thermodynamic from solid, FaSSIF (simulated intestinal fluid, fasted), 37°C
Measured Property: solubility at 24 h (µg/mL)
Give a bare numeral; the unit µg/mL is implied.

Task: Field request: solubility at 24 h | item: CC(C)c1c(F)cc(N2C[C@H](N(C)S(C)(=O)=O)[C@H]2C)c2cnc(Nc3ccnc(-c4cn(C)nc4Cl)n3)cc12 [crystal form A of free base]
Output: 10

====

- Run Description: Solubility experiments in different media, crystal forms of salts
- Format: physicochemical
- Setup Conditions: thermodynamic from solid; FeSSIF (fed-state artificial simulated intestinal fluid); about 2 mg suspended for 24 hours; 37°C; HPLC, external standard method
Measured Property: solubility thermodynamic at 24 h (µg/mL)
Give a bare numeral; the unit µg/mL is implied.

Task: Field request: solubility thermodynamic at 24 h | item: CC(C)c1c(F)cc(N2C[C@H](N(C)S(C)(=O)=O)[C@H]2C)c2cnc(Nc3ccnc(-c4cn(C)nc4Cl)n3)cc12 [crystal form A of phosphate]
Output: 1200

====

- Run Description: Rat pharmacokinetic evaluation test
- Type: in vivo
- Setup Conditions: male, po, SD rats, plasma, p.o. 5 mg/kg
- Description: 1. Study objective: SD rats were used as test animals to study the pharmacokinetic behaviour of the compounds of the present invention in rats (plasma) after oral administration at a dose of 5 mg/kg. 2. Experimental scheme: 2.1 Experimental drugs: The example compounds of the present invention, made in house. […] 3. Experimental results and analysis: The main pharmacokinetic parameters were calculated using WinNonlin 6.1.
Measured Property: half-life (h)

{"columns": ["Molecule", "half-life / h"],
 "data": [
  ["Cc1nn(C)cc1-c1nccc(Nc2cc3c(C(C)C)c(F)cc(N4C[C@H](N(C)S(C)(=O)=O)[C@H]4C)c3cn2)n1 [Example 5]", 3.9]
]}

(P) CC(C)c1c(F)cc(N2C[C@H](N(C)S(C)(=O)=O)[C@H]2C)c2cnc(Nc3ccnc(-c4cn(C)nc4Cl)n3)cc12 [Example 2]
(Q) CC(C)c1c(F)cc(N2C[C@H](CS(C)(=O)=O)[C@H]2C)c2cnc(Nc3ccnc(-c4cn(C)nc4Cl)n3)cc12 [Example 1]
Task: // which entry reports the smaller half-life, P or Q ? Respond using the label that marks the chosen record.
Output: Q
